test: AUC in cynomolgus monkey at 0.2 mg/kg, iv by LC-MS/MS analysis; type: ADME, organism-based, Macaca fascicularis; conditions: in vivo
Value type: AUC (ng·h/mL)

Given smiles | Quantity unit | Value measured
Cc1ccc(OC2CN(c3cccc(COC(=O)NC(=N)N)c3F)C2)cn1.O=C(O)C(O)C(O)C(=O)O | ng·h/mL | 5350

From: ChEMBL document CHEMBL4043269
